Values were extracted from ChEMBL document CHEMBL1201862.

Tested on: T47D
experiment: NCI tumour cell line growth inhibition, 48 h
Active and inactive are the calls of the source. Rule as the data show it: active = GI50 up to about 1.1 µM and inactive = higher.
Outcome codes: active, inactive

[
  {
    "molecule": "CCOC(=O)c1cn2c(n1)sc1cc(C)c(C)cc12",
    "experimental_target": "T47D",
    "class_assignment": "inactive"
  },
  {
    "molecule": "COc1ccc(/C=C/C(=O)c2cc(OC)cc(OC)c2)cc1",
    "experimental_target": "T47D",
    "class_assignment": "inactive"
  },
  {
    "molecule": "CN(C)C12C=CC=CC3=C(c4ccccc4)C(c4ccccc4)=C(c4ccccc4)C31c1ccccc1C2 (stereo not given)",
    "experimental_target": "T47D",
    "class_assignment": "inactive"
  },
  {
    "molecule": "O=C(NC(Cl)(C(F)(F)F)C(F)(F)F)c1ccc(F)cc1",
    "experimental_target": "T47D",
    "class_assignment": "inactive"
  },
  {
    "molecule": "Nc1ccc2cc3ccc(N)cc3nc2c1",
    "experimental_target": "T47D",
    "class_assignment": "inactive"
  },
  {
    "molecule": "Cc1cccc(/C=C2/C(=O)Nc3ccccc32)n1",
    "experimental_target": "T47D",
    "class_assignment": "inactive"
  },
  {
    "molecule": "N#C/C(=C1\\N=C(c2ccccc2O)Oc2ccccc21)c1ccc([N+](=O)[O-])cc1",
    "experimental_target": "T47D",
    "class_assignment": "inactive"
  },
  {
    "molecule": "CCOC(=O)/C=C(/C(=O)OCC)n1cc(C)c(=O)n(/C(=C/C(=O)OCC)C(=O)OCC)c1=O",
    "experimental_target": "T47D",
    "class_assignment": "inactive"
  },
  {
    "molecule": "Brc1cccc(Nc2ncnc3sc4c(c23)CCC2(C4)OCCO2)c1",
    "experimental_target": "T47D",
    "class_assignment": "inactive"
  },
  {
    "molecule": "CC[C@@]1(O)C(=O)OCc2c1cc1n(c2=O)Cc2c-1nc1ccccc1c2/C=N/NC(=O)C[N+](C)(C)C",
    "experimental_target": "T47D",
    "class_assignment": "active"
  }
]

###

Test system: UACC-62
experiment: NCI tumour cell line growth inhibition, 48 h
Calls of active or inactive are those of the source. Cut-off read from the data, not from the text of the source: active = GI50 up to about 1.1 µM and inactive = higher.
Reported GI50 by item:

[
  {
    "compound": "COc1cc2c(cc1OC)C(C(=O)c1cccc(OC)c1OC)C(=O)N(C)CC2 (stereo unspecified)",
    "GI50": "> 100 µM (inactive)"
  },
  {
    "compound": "COc1ccc2c(C)cc(N/N=C(\\C)C=O)nc2c1",
    "GI50": "12.6 µM (inactive)"
  },
  {
    "compound": "CC(c1ccccc1)N1CCN(C(C)c2ccccc2)CC1 (stereo unspecified)",
    "GI50": "40.8 µM (inactive)"
  },
  {
    "compound": "CN(O)C(=O)Cc1ccccc1",
    "GI50": "> 100 µM (inactive)"
  },
  {
    "compound": "COCOC1CCCC[C@@]1(OCCOCCO[C@@]1(c2ccccc2)CCCC[C@H]1OCOC)c1ccccc1 (stereo partly specified)",
    "GI50": "> 100 µM (inactive)"
  },
  {
    "compound": "Cc1ccc(O)c(-c2cscn2)c1",
    "GI50": "55 µM (inactive)"
  },
  {
    "compound": "N#CC(c1ccnc(Cl)n1)c1nc2ccccc2s1 (stereo unspecified)",
    "GI50": "3.21 µM (inactive)"
  },
  {
    "compound": "O=c1[nH]c(=O)n(C2CC(O)C(CO)O2)cc1C#Cc1ccc(F)cc1 (stereo unspecified)",
    "GI50": "> 100 µM (inactive)"
  },
  {
    "compound": "CCOC(=O)c1c(SC(=O)C(C)(C)Oc2ccc(Cl)cc2)n(-c2ccccc2)c(=S)n(-c2ccccc2)c1=O",
    "GI50": "67.8 µM (inactive)"
  },
  {
    "compound": "CCCCOC1CC2(c3ccc(OC)cc3)C(=O)c3ccccc3N2O1 (stereo unspecified)",
    "GI50": "> 10 µM (inactive)"
  },
  {
    "compound": "C=CCc1c(C)nc(C)nc1N/N=C/C=C/c1ccccc1",
    "GI50": "20.6 µM (inactive)"
  }
]
